readout_kind: melting point

See these solved cases before continuing.
[
  {
    "molecule": "C[Si](C)(C)CCCNc1ccc(C(=O)O)cc1",
    "melting point": "164 to 165 °C"
  },
  {
    "molecule": "CC(C)(C)c1csc(-c2cc3cc(O)ccc3o2)n1",
    "melting point": "179 to 180 °C"
  },
  {
    "molecule": "c1ccc(CSc2nc3cnccc3[nH]2)cc1",
    "melting point": "175 to 177 °C"
  },
  {
    "molecule": "N#CCC(=O)C(F)(F)C(F)(F)F",
    "melting point": "47 to 54 °C"
  },
  {
    "molecule": "O=C(O)CCc1sc(-c2ccccc2)nc1-c1ccc(Cl)cc1",
    "melting point": "142 to 143 °C"
  }
]

Please look at the following molecule next.
(Q) Which melting point is reported for this molecule? "Cc1ccc2c(c1)Oc1ccc([N+](=O)[O-])cc1C(=O)N2C"
(A) 156 to 159 °C

###

readout_kind: melting point

[
  {
    "molecule": "CS(=O)(=O)c1ccc(-c2ccccc2C=C2CCCCC2)cc1",
    "result": "83 °C"
  },
  {
    "molecule": "Cc1cc(-n2nc(C#N)cc2-c2ccc(S(C)(=O)=O)cc2)ccc1F",
    "result": "144 °C"
  },
  {
    "molecule": "CNC(=C[N+](=O)[O-])NCCSCc1csc(CO)n1",
    "result": "131 to 132 °C"
  },
  {
    "molecule": "Cn1cc(C2=C(c3cn(C)c4ccc(O)cc34)C(=O)NC2=O)c2ccccc21",
    "result": "284 to 287 °C"
  }
]

(Q) Which melting point is reported for this molecule? CC#CCOc1ccc(S(=O)(=O)N2CCOCC2C(=O)NO)cc1 (stereo unspecified)
(A) 68 to 72 °C

(Q) Which melting point is reported for this molecule? "CC(C)c1nc2c(s1)C(=O)N(c1cccc(C(F)(F)F)c1)C2=O"
(A) 80 °C

(Q) Which melting point is reported for this molecule? "CC1=NC(=NOC(=O)NC2CC2)SC1(C)C"
(A) 86 to 89 °C

###

This listing pairs compounds with measured melting point.

See these solved cases before continuing.
[
  {
    "compound": "CC(=O)Cc1ccc(O)cn1",
    "melting point": "119 to 120 °C"
  },
  {
    "compound": "O=C(NN=Cc1ccccc1O)c1cc2ccccc2cc1O",
    "melting point": "> 285 °C"
  },
  {
    "compound": "CC(=NOCCc1ccc(C)cc1)C(=O)O",
    "melting point": "106 to 108 °C"
  }
]

(Q) Which melting point is reported for this compound? "COc1cc2c(Nc3ccc(C)c(O)c3)ncnc2cc1OCc1ccncn1"
(A) 290 to 291 °C

(Q) Which melting point is reported for this compound? "CCn1ncc2c(NCc3ccc(OC)c(OC)c3)c3ccccc3nc21"
(A) 169 to 171 °C

(Q) Which melting point is reported for this compound? "CO/C(=C\C=C\c1cc2cc(Cl)c(Cl)cc2[nH]1)C(=O)O"
(A) 249 to 250 °C

(Q) Which melting point is reported for this compound? "Nc1ccc2c(c1)Sc1ccc(N)cc1S2"
(A) 185 to 186 °C

(Q) Which melting point is reported for this compound? O=C1CCC(N2Cc3c(OCc4ccc(CN5CCN(C(=O)C(F)(F)F)CC5)cc4)cccc3C2=O)C(=O)N1 (stereo not given)
(A) 125 to 127 °C

The measured values listed here are drawn from a melting point compilation (Tetko et al.; mined from patent text by program, amines drawn as free bases though some values may be those of a salt).
